# measured on: human ether-à-go-go-related gene (hERG) potassium channel (human, UniProt Q12809)
# Sequence (Q12809 whole entry, looked up): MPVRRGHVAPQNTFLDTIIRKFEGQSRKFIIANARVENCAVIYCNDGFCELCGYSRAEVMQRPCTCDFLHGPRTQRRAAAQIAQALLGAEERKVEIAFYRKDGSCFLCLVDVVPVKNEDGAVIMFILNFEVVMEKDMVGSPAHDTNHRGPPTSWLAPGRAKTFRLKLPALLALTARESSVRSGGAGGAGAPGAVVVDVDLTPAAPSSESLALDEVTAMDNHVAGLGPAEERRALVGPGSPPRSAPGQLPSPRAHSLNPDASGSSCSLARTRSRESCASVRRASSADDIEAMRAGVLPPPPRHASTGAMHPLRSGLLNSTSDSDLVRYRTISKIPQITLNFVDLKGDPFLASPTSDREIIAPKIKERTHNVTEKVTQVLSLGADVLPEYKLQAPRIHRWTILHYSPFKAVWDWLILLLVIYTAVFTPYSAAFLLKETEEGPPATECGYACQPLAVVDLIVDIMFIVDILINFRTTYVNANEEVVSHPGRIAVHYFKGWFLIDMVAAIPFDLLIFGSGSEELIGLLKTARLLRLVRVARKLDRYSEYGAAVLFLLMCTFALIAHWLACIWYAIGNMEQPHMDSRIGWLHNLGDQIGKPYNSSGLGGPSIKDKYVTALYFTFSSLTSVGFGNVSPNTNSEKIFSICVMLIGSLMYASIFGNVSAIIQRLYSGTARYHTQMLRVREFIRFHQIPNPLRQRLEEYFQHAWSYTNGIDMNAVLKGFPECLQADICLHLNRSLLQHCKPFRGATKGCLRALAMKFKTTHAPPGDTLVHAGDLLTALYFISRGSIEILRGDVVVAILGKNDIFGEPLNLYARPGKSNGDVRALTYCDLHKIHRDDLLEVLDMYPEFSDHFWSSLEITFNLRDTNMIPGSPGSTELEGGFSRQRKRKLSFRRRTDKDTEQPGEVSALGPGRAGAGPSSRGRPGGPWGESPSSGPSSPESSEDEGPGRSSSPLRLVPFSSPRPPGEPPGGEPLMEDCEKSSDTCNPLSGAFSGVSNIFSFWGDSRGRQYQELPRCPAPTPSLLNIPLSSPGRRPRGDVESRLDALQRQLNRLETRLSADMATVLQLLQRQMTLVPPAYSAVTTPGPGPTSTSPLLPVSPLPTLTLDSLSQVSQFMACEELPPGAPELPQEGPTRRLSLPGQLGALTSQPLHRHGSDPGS
# measurement description: primary screen, population patch clamp on CHO cells stably expressing hERG; higher = less effect of the substance;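 further: peak tail current of the secondary pulse compared with the same well before compound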
Hit rate of the full screen: of about 310,000 compounds, about 14,000 (4.5%) showed an effect of 50% or more. Effects have a minus sign here. For the sample, strong results were picked, then their nearest neighbours and some compounds at random.
In this section, each of the molecules is paired with its reported hERG current change (%, negative = inhibition) at 10uM.
Respond numerically; units are % and should not be typed.

The following molecules have reported results that may help.
molecule	obs value
C/C(=N/NC(=O)CN1CCN(S(=O)(=O)c2ccc(C)cc2)CC1)c1ccco1	-53.7
CC1CN(C(=O)CSc2nnc(NC(=O)NC(C)(C)C)s2)CC(C)O1 (stereo not shown)	19
Cc1ccc(CN2CCSc3ccc(C(=O)N4CCN(c5ncccn5)CC4)cc32)cc1	19

// assay human ether-à-go-go-related gene (hERG) potassium channel (human, UniProt Q12809), entry CCOC(=O)C1CCCN(Cc2nc(N)nc(Nc3ccc(C)cc3)n2)C1 (stereo not shown) , hERG current change (%, negative = inhibition) at 10uM value = -69.5

// assay human ether-à-go-go-related gene (hERG) potassium channel (human, UniProt Q12809), entry "Cc1nc2c([nH]1)C1(CCN(Cc3ccccc3)CC1)C(C#N)=C(N)O2.Cl" , hERG current change (%, negative = inhibition) at 10uM value = -52.5

// assay human ether-à-go-go-related gene (hERG) potassium channel (human, UniProt Q12809), entry "COc1ccc(C)cc1-n1nnnc1SCC(=O)NC1CC1" , hERG current change (%, negative = inhibition) at 10uM value = 0.673

// assay human ether-à-go-go-related gene (hERG) potassium channel (human, UniProt Q12809), entry "CN(C)c1ccc(NC(=S)NC(=O)/C=C/c2ccc(Cl)cc2)cc1" , hERG current change (%, negative = inhibition) at 10uM value = 2.39

// assay human ether-à-go-go-related gene (hERG) potassium channel (human, UniProt Q12809), entry CCOC(=O)C1CCCN(Cc2ccccc2Cl)C1 (stereo not shown) , hERG current change (%, negative = inhibition) at 10uM value = -3.88

// assay human ether-à-go-go-related gene (hERG) potassium channel (human, UniProt Q12809), entry COc1ccc(NC(=O)CSC2CC(=O)N(c3ccc4c(c3)OCCO4)C2=O)cc1 (stereo not shown) , hERG current change (%, negative = inhibition) at 10uM value = 4.54

// assay human ether-à-go-go-related gene (hERG) potassium channel (human, UniProt Q12809), entry "Clc1ccc(SCCCCN2CCNCC2)cc1.O=C(O)C(=O)O" , hERG current change (%, negative = inhibition) at 10uM value = -48.7

The origin of these recorded values is paper PMC4336329.
